Test system COX-2 (Homo sapiens), IC50 listed for each of the molecules.
Just the number please, in nM, no unit attached.

query: Kindly state the measured IC50 obtained for Cc1ccc([C@H](C[N+](=O)[O-])[C@@](C)(C=O)Cc2ccc(C(C)C)cc2)cc1 (mixture of isomers) [FM3] with COX-2 (Homo sapiens).
Sequence (P35354 18-604): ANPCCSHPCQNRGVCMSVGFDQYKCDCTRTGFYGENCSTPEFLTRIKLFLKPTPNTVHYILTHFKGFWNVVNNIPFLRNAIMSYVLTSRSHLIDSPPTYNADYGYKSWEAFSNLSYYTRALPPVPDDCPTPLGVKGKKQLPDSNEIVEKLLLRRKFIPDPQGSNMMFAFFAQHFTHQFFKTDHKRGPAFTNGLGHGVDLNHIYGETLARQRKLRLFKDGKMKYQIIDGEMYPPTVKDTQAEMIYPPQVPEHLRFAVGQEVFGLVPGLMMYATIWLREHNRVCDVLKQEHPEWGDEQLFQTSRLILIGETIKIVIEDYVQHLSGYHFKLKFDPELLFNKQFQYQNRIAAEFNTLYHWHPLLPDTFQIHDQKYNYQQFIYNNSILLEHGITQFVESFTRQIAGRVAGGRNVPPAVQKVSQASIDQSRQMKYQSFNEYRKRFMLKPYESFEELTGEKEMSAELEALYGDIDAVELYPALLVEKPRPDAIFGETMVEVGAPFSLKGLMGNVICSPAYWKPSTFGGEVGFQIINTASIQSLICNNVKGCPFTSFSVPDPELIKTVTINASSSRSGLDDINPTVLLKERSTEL
result: 3530

query: Value wanted: IC50 (COX-2 (Homo sapiens)) of entry COc1ccc([C@H](C[N+](=O)[O-])[C@@](C)(C=O)Cc2ccc(C(C)C)cc2)cc1 (mixture of isomers) [FM4]
result: 740

query: Find the measured IC50: item CC(C)c1ccc(C[C@](C)(C=O)[C@@H](C[N+](=O)[O-])c2ccccc2)cc1 (mixture of isomers) [FM1] , target or system COX-2 (Homo sapiens).
result: 1210

As a next step, examine the molecule that follows.
query: Value wanted: IC50 (COX-2 (Homo sapiens)) of entry CC(C)c1ccc(C[C@](C)(C=O)[C@@H](C[N+](=O)[O-])c2ccc(Cl)cc2)cc1 (mixture of isomers) [FM2]
result: 2510
